- Assay Text: Clearance in Wistar Han rat at 2 mg/kg, iv by LC/MS method
- Format: ADME, organism-based
- Measurement Context: in vivo
Output true for clearance not less than 10 mL/min/kg; output false otherwise.

[[record]]
compound = "CCc1ccc([C@@H]2Oc3cc(-c4cnc([C@@H]5CCCN5C(=O)[C@@H](NC(=O)OC)[C@@H]5CCOC(C)(C)C5)[nH]4)cc(F)c3-c3cc4cc(-c5cnc([C@@H]6CCCN6C(=O)[C@@H](NC(=O)OC)C(C)C)[nH]5)ccc4n32)s1"
class_name = "false"

[[record]]
compound = "COC(=O)N[C@H](C(=O)N1CCC[C@H]1c1ncc(-c2cc(F)c3c(c2)O[C@@H](c2ccc(C4CC4)s2)n2c-3cc3cc(-c4cnc([C@@H]5CCCN5C(=O)[C@@H](NC(=O)OC)C5CC6CCC(C5)O6)[nH]4)ccc32)[nH]1)C(C)C (stereo partly specified)"
class_name = "true"

[[record]]
compound = "COC(=O)N[C@H](C(=O)N1CCC[C@H]1c1ncc(-c2cc(F)c3c(c2)O[C@@H](c2ccc(C4CC4)s2)n2c-3cc3cc(-c4cnc([C@@H]5CCCN5C(=O)[C@@H](NC(=O)OC)C5CC(C)(C)OC(C)(C)C5)[nH]4)ccc32)[nH]1)C(C)C"
class_name = "false"

[[record]]
compound = "COC(=O)N[C@H](C(=O)N1CCC[C@H]1c1ncc(-c2ccc3c(c2)cc2n3[C@H](c3ccc4c(c3)OCCC4)Oc3cc(-c4cnc([C@@H]5CCCN5C(=O)[C@@H](NC(=O)OC)C5CCOCC5)[nH]4)cc(F)c3-2)[nH]1)C(C)C"
class_name = "true"

[[record]]
compound = "COC(=O)N[C@H](C(=O)N1CCC[C@H]1c1ncc(-c2cc(F)c3c(c2)O[C@@H](c2ccc4c(c2)OCCC4)n2c-3cc3cc(-c4cnc([C@@H]5CCCN5C(=O)[C@@H](NC(=O)OC)C5CCOCC5)[nH]4)ccc32)[nH]1)C(C)C"
class_name = "true"

[[record]]
compound = "COC(=O)N[C@H](C(=O)N1CCC[C@H]1c1ncc(-c2ccc3c(c2)cc2n3[C@H](c3ccc(C4CC4)s3)Oc3cc(-c4cnc([C@@H]5CCCN5C(=O)[C@@H](NC(=O)OC)[C@@H]5CCOC(C)(C)C5)[nH]4)cc(F)c3-2)[nH]1)C(C)C"
class_name = "false"

